system: Calf thymus DNA; assay: Dimer binding constant for DNA of calf thymus at pH 5.; format: nucleic-acid assay; conditions: Bos taurus
readout-label: K app

Known results for compounds:
Cc1c2cc[n+](CCN3CCC(C4CCN(CC[n+]5ccc6c(C)c7[nH]c8ccc(O)cc8c7c(C)c6c5)CC4)CC3)cc2c(C)c2c1[nH]c1ccc(O)cc12 : 1e+08
COc1ccc2[nH]c3ccc4cc[n+](CCN5CCC(C6CCN(CC[n+]7ccc8ccc9[nH]c%10ccc(OC)cc%10c9c8c7)CC6)CC5)cc4c3c2c1.[Cl-].[Cl-] [DITERCALINIUM CHLORIDE] : 5e+08

A: Oc1ccc2[nH]c3ccc4c[n+](CCN5CCC(C6CCN(CC[n+]7ccc8c(ccc9[nH]c%10ccc(O)cc%10c98)c7)CC6)CC5)ccc4c3c2c1
B: Oc1ccc2[nH]c3ccc4cc[n+](CCN5CCC(C6CCN(CC[n+]7ccc8ccc9[nH]c%10ccc(O)cc%10c9c8c7)CC6)CC5)cc4c3c2c1.[Cl-].[Cl-]
C: COc1ccc2c(c1)c1c3c[n+](CCN4CCCCC4)ccc3ccc1n2C
D: COc1ccc2[nH]c3ccc4cc[n+](CC(O)CN5CCC(C6CCN(CC(O)C[n+]7ccc8ccc9[nH]c%10ccc(OC)cc%10c9c8c7)CC6)CC5)cc4c3c2c1 (stereo unspecified)
Ordering criterion: K app; begin with the maximum. Output spec: labels arranged per the requested ranking. D, B, A, C
